- Tested on: L1210
- Protocol Summary: Percentage of mice survived after 60 days of treatment with the compound was determined.
- Assay type: functional, Mus musculus
- Design: concentration or dose not given beside the values
Quantity: Survival (%)
State just the number; it will be interpreted in %.

| Compound | Quantity | Endpoint Result |
| --- | --- | --- |
| CS(=O)(=O)N(CCI)N(S(C)(=O)=O)S(C)(=O)=O | Survival | 0 |

query: Consider the compound shown here: CS(=O)(=O)N(N(CCCl)S(=O)(=O)c1ccccc1)S(C)(=O)=O What is its recorded Survival?
result: 40

query: How about this compound: CS(=O)(=O)N(N(CCCl)S(=O)(=O)c1ccc(Br)cc1)S(C)(=O)=O
result: 60
